These entries and their values trace back to PubChem BioAssay (NCATS).

Experiment: qHTS for Inhibitors of the Functional Ribonucleoprotein Complex (vRNP) of Lassa (LASV) Arenavirus: Viability assay - alamar blue signal for LASV Primary Screen (AID 1347083); also: nearly all actives have a fitted effect of over 80% in size
Details: cell viability, alamar blue fluorescence (LASV minigenome counter-screen); series mostly up to 57.5 µM
Inconclusive results are not listed. Activity calls are given as the source filed them. Calls follow the shape of the full dose curve; tested in HEK293 reporter line. Numbered stars: 1 amine (or outer) side, 2 acyl side, 3 side chain; on linkers, the order of the positions; unused ones are H or OH. Bridge positions count the residues as written; N and C are the ends. Square brackets hold non-standard residues; d marks the D form. Peptide text beside a SMILES is read from it. I, II: the chains in the order shown. Actinocin(9to1) = Cc1c2oc3c(C)ccc(C(=O)[*:1])c3nc-2c(C(=O)[*:2])c(N)c1=O; NMeV = CN[CH](C(=O)O)C(C)C; Sar = CNCC(=O)O
Answer with one of the outcomes 1 = active, 0 = inactive

Task item: # lookup: test call for O=C(O)CCCCCCCCCC(=O)O
Reply: 0

Task item: # lookup: test call for C=CCCC[C@@H]1OC(=O)CNC(=O)C([C@@H](C)CC)NC(=O)[C@@H]2CCCN2C(=O)C([C@@H](C)CC)OC(=O)[C@H](Cc2ccccc2)N(C)C(=O)[C@H](C(C)C)NC(=O)C1(C)C (stereo not given in full)
Reply: 0

Task item: # lookup: test call for CN1C2CCC1CC(OC(=O)C1CCC(C(=O)OC3CC4CCC(C3)N4C)(c3ccccc3)c3ccccc31)C2 (stereo not given)
Reply: 0

Task item: # lookup: test call for Cc1c2oc3c(C)ccc(C(=O)NC4C(=O)NC(C(C)C)C(=O)N5CCCC5C(=O)N(C)CC(=O)N(C)C(C(C)C)C(=O)OC4C)c3nc-2c(C(=O)NC2C(=O)NC(C(C)C)C(=O)N3CCCC3C(=O)N(C)CC(=O)N(C)C(C(C)C)C(=O)OC2C)c(N)c1=O (stereo not given) (I: TVP[Sar][NMeV] / II: TVP[Sar][NMeV]; ester I:1-I:C, II:1-II:C; linker I:N-II:N via Actinocin(9to1); configuration not given here)
Reply: 0

Task item: # lookup: test call for ClC1=C(Cl)[C@]2(Cl)[C@@H]3[C@@H](Cl)[C@H]4O[C@H]4[C@@H]3C1(Cl)C2(Cl)Cl
Reply: 0

Task item: # lookup: test call for N#CC(=C(\N)Sc1ccccc1N)/C(C#N)=C(/N)Sc1ccccc1N
Reply: 0

Task item: # lookup: test call for CN1CC(CO)=C[C@H]2c3cccc4[nH]cc(c34)C[C@H]21
Reply: 0

Task item: # lookup: test call for COc1ccc(-c2cnc(-c3cccnc3)o2)cc1
Reply: 0

----------
Test: Primary qHTS to identify inhibitors of SARS-CoV-2 cell entry (AID 1645846); also: nearly all actives have a fitted effect of over 45% in size
Details: SARS-CoV-2 pseudovirus cell entry assay, luminescence; at 57.1 µM (top of the series) unless noted
Inconclusive results are not listed.
activity change, negative = inhibition reference
Answer format: numeric, % implied, no suffix.

Use the examples below as a reference point.
COMPOUND | UNITS | activity change, negative = inhibition
c1ccc2c(Oc3nc(Nc4ccc(N5CCOCC5)cc4)c4ncn(C5CCCCC5)c4n3)cccc2c1 | % | -17.3
NC(=O)Nc1cc(-c2ccc(CN3CCOCC3)cc2)sc1C(N)=O | % | -10.1
CC(=O)NC(CS)C(=O)O (stereo unspecified) | % | -1.31
COC(=O)[C@H](CCCN=C(N)N)NS(=O)(=O)c1ccc(C)cc1 | % | -0.183

Noted for C[C@H](O)[C@H](O)[C@H]1CNc2nc(N)[nH]c(=O)c2N1 : its activity change, negative = inhibition reads -28

Noted for COc1ccc(-n2c(C)c([N+](=O)[O-])c3ccc(O)cc32)cc1 : its activity change, negative = inhibition reads -4.69

Noted for C[C@H]1COC2=C1C(=O)C(=O)c1c2ccc2c1CCCC2(C)C : its activity change, negative = inhibition reads -2.76

Noted for Cc1c(Cn2c(C)nc3c(C(=O)O)cc(N4CCOCC4)cc32)cccc1C(F)(F)F : its activity change, negative = inhibition reads -3.96

Noted for COc1ccc2c(Oc3ccc(NC(=O)c4c(C)n(CC(C)(C)O)n(-c5ccccc5)c4=O)cc3F)ccnc2c1 : its activity change, negative = inhibition reads -8.07

----------
Assay: Primary qHTS for inhibitors of nuclear receptor binding SET domain protein 2 (NSD2) in an RCH-ACV wild type WT cells (2C) (AID 1645877); also: nearly all actives have a fitted effect of over 70% in size
Details: RCH-ACV (leukaemia line) NSD2 WT (2C) viability, CellTiter-Glo, 72 h; series mostly up to 44.9 µM
Description: Assay Provider: Jonathan D. Licht, MD University of Florida College of Medicine, Gainesville, FL Mutations in epigenetic regulators are common in relapsed pediatric acute lymphoblastic leukemia (ALL). Here, we uncovered the mechanism underlying the relapse of ALL driven by an activating mutation of the NSD2 histone methyltransferase (p.E1099K). […] Correction of this mutation restored glucocorticoid sensitivity. […]
Results filed as inconclusive are left out. Calls of active or inactive are those of the source. The call rests on the fitted dose curve; in most records, active means well fitted inhibition curve with a large enough effect; inconclusive means small, poorly fitted or top-dose-only effect; inactive means no such curve, though single readings can be large or run the other way.
Answer with one of the outcomes TRUE = active, FALSE = inactive

Solved entries (count: 4):
MOLECULE | DISCRETE LABEL
COc1ccc2c(c1)[nH]c1c(C)nccc12 | TRUE
C[C@]12CC[C@H](O)C[C@H]1CC[C@@H]1[C@@H]2[C@H](O)C(=O)[C@]2(C)[C@@H](c3ccc(=O)oc3)CC[C@]12O | TRUE
C=CCN1CCC2(C)c3cc(O)ccc3C[C@H]1[C@H]2C | FALSE
CO[C@H]1[C@H](O)[C@H](O[C@H]2CC[C@]3(C=O)C4CC[C@]5(C)[C@H](C6=CC(=O)OC6)CC[C@]5(O)C4CC[C@@H]3C2)O[C@@H](C)[C@@H]1O (stereo not given in full) | TRUE

Task item: # lookup: test call for O=C1CN=C(c2cccc(Br)c2)c2oc3ccccc3c2N1
Reply: TRUE

----------
Test system: KB-3-1
Test: Cytotoxic Profiling of Annotated Libraries Using Quantitative High-Throughput Screening (AID 1296008); also: % is scaled to controls: 0 for no effect and ±100 for the full control effect; nearly all actives have a fitted effect of over 60% in size
Details: Five cell lines viability, CellTiter-Glo ATP luminescence, 48-72 h; stronger effect = lower value
Records with an inconclusive call do not appear.
READOUT NAME: max response (%)
Answer format: numeric, % implied, no suffix.

Use the examples below as a reference point.
COMPOUND | max response [%]
CCC(C)/C=C(C)/C=C/C1=CC2=C(Cl)C(=O)C(C)(OC(C)=O)C(=O)C2=CO1 (stereo not given) | -15.5
Oc1ccc2c3c1O[C@H]1[C@@H](O)C=C[C@H]4[C@H](C2)NCC[C@@]341 | -12.5
CN=C(NS(=O)(=O)c1ccc(Cl)cc1)N1C[C@H](c2ccccc2)C(c2ccc(Cl)cc2)=N1 | -19.1
COC(=O)CC1CC2(C(=O)c3c(O)cccc3C2(O)C(=O)OC)C(C)O1 (stereo not given) | 3.88

Then this compound:
Noted for COc1cc(N2CCN(C)CC2)ccc1N : its max response reads -1.04

----------
System: Es-2
Assay: Primary qHTS to identify gynecologic anti-cancer compounds using libraries of approved drugs and bioactive compounds (AID 1345084); also: nearly all actives have a fitted effect of over 55% in size
Conditions: Gynecologic cancer cell panel viability, ATPlite luminescence, 48 h; series mostly up to 57.5 µM
Results filed as inconclusive are left out. Calls of active or inactive are those of the source. Calls follow the shape of the dose curve; as a rule, active = well fitted cell-killing curve with a large enough effect; inconclusive = small, poorly fitted or top-dose-only effect, or effect the other way; inactive = flat fitted curve, though single readings scatter.
Answer with one of the outcomes active, inactive

Solved entries (count: 5):
COMPOUND | DISCRETE LABEL
C=C1C(=O)O[C@@H]2[C@H]3C(=C)[C@@H](O)C[C@H]3C(=C)C[C@@H](O)[C@@H]12 | inactive
C[C@H]1CN(Cc2ccc(CC(=O)N3CCC(Nc4cccc(F)c4)CC3)cc2)CCN1 | inactive
C[C@@H]1CCC/C=C/[C@H]2C[C@@H](O)C[C@@H]2[C@@H](O)/C=C/C(=O)O1 | active
COC1CC(O[C@H]2CC[C@]3(C=O)C4CC[C@]5(C)[C@@H](C6=CC(=O)OC6)CC[C@]5(O)[C@@H]4CC[C@@H]3C2)OC(C)C1O[C@@H]1O[C@H](CO)[C@@H](O[C@@H]2O[C@H](CO)[C@@H](O)[C@H](O)[C@H]2O)[C@H](O)[C@H]1O (stereo partly drawn) | active
O=C(NCCN1CCC2(CC1)C(=O)NCN2c1cccc(F)c1)c1ccc(F)c(F)c1 | inactive

Task item: # lookup: test call for CCC1=CC2CN3CCc4c([nH]c5ccccc45)[C@@](C(=O)OC)(C2)[C@@H]13
Reply: inactive

Task item: # lookup: test call for COc1ccc(C23CCC(=O)C=C2N(C)CC3)cc1OC (stereo not drawn)
Reply: inactive

Task item: # lookup: test call for C[C@@H]1CCC2[C@@H](C)C(=O)OC3O[C@@]4(C)CCC1[C@]32OO4 (stereo partly drawn)
Reply: inactive

----------
Test: qHTS for Inhibitors of the Functional Ribonucleoprotein Complex (vRNP) of Lassa (LASV) Arenavirus: Viability assay - alamar blue signal for LASV Primary Screen (AID 1347083); also: nearly all actives have a fitted effect of over 80% in size
Details: cell viability, alamar blue fluorescence (LASV minigenome counter-screen); series mostly up to 57.5 µM
Records with an inconclusive call do not appear. Calls of active or inactive are those of the source. The call rests on the fitted dose curve; tested in HEK293 reporter line.
Answer with one of the outcomes active, inactive

Solved entries (count: 5):
MOLECULE | DISCRETE LABEL
NCC1CCC(C(=O)O)CC1 (configuration not stated) | inactive
Nc1ccc(C(=O)Nc2cccc(-c3nc(N4CCOCC4)c4oc5ncccc5c4n3)c2)cn1 | active
Cn1cnc(-c2cc3nccc(Oc4ccc(NC(=S)NC(=O)Cc5ccccc5)cc4F)c3s2)c1 | inactive
C[C@]12CC[C@@H]3c4ccc(O)cc4CC[C@H]3[C@H]1CC[C@H]2O | active
CN(CCCC(=O)c1cccnc1)N=O | inactive

Task item: # lookup: test call for COC(=O)C1C2CC3c4[nH]c5cc(OC)ccc5c4CCN3CC2CC(OC(=O)c2cc(OC)c(OC)c(OC)c2)C1OC (configuration not stated)
Reply: inactive

Task item: # lookup: test call for CCCCCc1cc(O)c2c(c1)OC(C)(C)c1ccc(C)cc1-2
Reply: inactive

Task item: # lookup: test call for CCc1ccc(O)c(OC)c1
Reply: inactive

Task item: # lookup: test call for O=C(O)c1cc(=O)c2ccccc2[nH]1
Reply: inactive

Task item: # lookup: test call for C=CCCCCCCCCCCCC
Reply: inactive

Task item: # lookup: test call for Fc1ccc(C(OCCCc2cnc[nH]2)c2ccc(F)cc2)cc1
Reply: inactive

Task item: # lookup: test call for O=C(Nc1ccccc1Br)N[C@@H]1CCN(c2ccc(C(F)(F)F)cn2)C1
Reply: inactive
